substrate: CCCCC/C=C\C/C=C\C=C\[C@@H](C/C=C\CCCC(=O)O)OO; experiment: purified protein; type: biochemical, Capnella imbricata; settings: 50 mM Tris pH 8.0, 100 mM NaCl, 1 mM CaCl2, 20 °C, 5–50 μM substrate
Measured Attribute: kcat

-- ask Let me know recorded kcat for C. imbricata cHPL (catalase-related hydroperoxide lyase domain) (Capnella imbricata; E60K/M59L) (protein, N-terminal cHPL domain of the HPL-LOX fusion protein, without the LOX domain; cHPL-His4 in pET11a; E. coli BL21(DE3), Ni-NTA; heme protein; monomer 45 kDa plus oligomers 440-670 kDa) MVWKNFGYEIFAEKFGKDELEKRIKDEHTAPPESPLFGSLKLKMKKEKFKILFTLRTTLKGFRRPTHTVATGGLGEITIVSDPKFPEHEFYRAGRKFPARLRHANLKLLDDAGSDARSFSIKFADNDSESPMDIVMNTGEANIFWNTSSFEDFVSSSAGESAAKEYVYKNPYYYYYSIEALRRAPETFAHLYYYSQLTMHFKAKDGKVRYCRYRAIPGDADIKEEEESGRLTEEEQRNVWIRSRHQNEKRPDDYLRKEYVERLGKGPVNYRLQIQIHEASPDDTATIFHAGIMWNKETHPWFDLAKVSIKTPLSPDVLERTSFNIVNQPESLGLLEAKSPEDYNSIGQIRVAVYKWIQHLRKLKVGSLVPTGQN , thanks.
-- reply 7.5 s⁻¹
